These entries and their values trace back to ChEMBL document CHEMBL5154735.

- target: UniProtKB Q9UNQ0
- assayName: Inhibition of human ABCG2 in human R5 cells assessed as inhibition of mitoxantrone efflux at 10 uM measured by flow cytometric analysis relative to control
- Type: cell-based
- testContext: probe mitoxantrone
measuredQuantity: inhibition at 10 µM
Record the result as a number with its unit.

Recorded inhibition at 10 µM, per entry:
# molecule, target, inhibition at 10 µM
rows = [
    ("CNC(=O)C12CC1[C@@H](n1cnc3c(N[C@H]4C[C@@H]4c4ccc(F)c(F)c4)nc(C#Cc4cccc(F)c4)nc31)[C@H](O)[C@@H]2O (single isomer, unassigned)", "UniProtKB Q9UNQ0", "97.2%"),
    ("CNC(=O)C12CC1[C@@H](n1cnc3c(N[C@@H]4C[C@H]4c4ccc(F)c(F)c4)nc(C#Cc4cccc(F)c4)nc31)[C@H](O)[C@@H]2O (single isomer, unassigned)", "UniProtKB Q9UNQ0", "97.4%"),
]

What does the record list as inhibition at 10 µM for CNC(=O)C12CC1[C@@H](n1cnc3c(NCc4cccc(-n5cc(-c6ccc(F)c(F)c6)nn5)c4)nc(C#Cc4cc(F)c(F)c(F)c4)nc31)[C@H](O)[C@@H]2O (single isomer, unassigned) ?
105%

---

- target: ABCG2 (Homo sapiens)
- Sequence (Q9UNQ0 whole entry): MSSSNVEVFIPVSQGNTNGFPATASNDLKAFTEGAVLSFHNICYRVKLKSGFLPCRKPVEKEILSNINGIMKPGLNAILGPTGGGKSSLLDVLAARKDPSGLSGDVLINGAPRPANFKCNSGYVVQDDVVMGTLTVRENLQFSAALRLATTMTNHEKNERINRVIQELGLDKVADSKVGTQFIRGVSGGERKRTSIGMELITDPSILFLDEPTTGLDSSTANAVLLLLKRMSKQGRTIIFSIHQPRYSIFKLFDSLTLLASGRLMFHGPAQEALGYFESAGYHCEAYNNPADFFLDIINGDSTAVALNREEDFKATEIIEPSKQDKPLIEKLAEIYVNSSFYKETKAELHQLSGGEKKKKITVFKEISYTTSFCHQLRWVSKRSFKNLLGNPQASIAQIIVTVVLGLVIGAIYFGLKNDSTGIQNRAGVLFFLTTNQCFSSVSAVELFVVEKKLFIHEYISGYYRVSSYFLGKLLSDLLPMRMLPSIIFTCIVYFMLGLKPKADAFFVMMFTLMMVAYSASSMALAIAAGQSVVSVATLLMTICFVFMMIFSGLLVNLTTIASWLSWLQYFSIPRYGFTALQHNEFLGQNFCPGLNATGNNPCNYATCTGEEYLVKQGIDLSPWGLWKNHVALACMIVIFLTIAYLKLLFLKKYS
- assayName: Effect on human ABCG2 transporter preincubated for 2 mins followed by ATP addition assessed as basal ATPase activity at 100 nM and measured after 20 mins by colorimetric assay relative to control
- testContext: read-out: Activity
measuredQuantity: activity at 20 min, 0.1 µM

# molecule, measuredQuantity, result
rows = [
    ("CNc1nc(C#Cc2ccc(Cl)s2)nc2c1ncn2[C@@H]1O[C@H](C(=O)OC)[C@@H](O)[C@H]1O", "activity at 20 min, 0.1 µM", "≤ 30%"),
    ("CNc1nc(C#Cc2ccc(Cl)s2)nc2c1ncn2[C@H]1[C@H](O)[C@H](O)[C@@]2(C(=O)OCCc3ccccc3)C[C@H]12", "activity at 20 min, 0.1 µM", "≤ 30%"),
    ("CCOC(=O)C12CC1[C@@H](n1cnc3c(NC)cc(C#Cc4ccc(Cl)s4)nc31)[C@H](O)[C@@H]2O (single isomer, unassigned)", "activity at 20 min, 0.1 µM", "≤ 30%"),
    ("CNc1nc(C#Cc2ccc(Cl)s2)nc2c1ncn2[C@@H]1C2CC2(C(=O)OCCC(C)C)[C@@H](O)[C@H]1O (single isomer, unassigned)", "activity at 20 min, 0.1 µM", "≤ 30%"),
    ("CCOC(=O)C12CC1[C@@H](n1ccc3c(NC)nc(C#Cc4ccccc4)nc31)[C@H](O)[C@@H]2O (single isomer, unassigned)", "activity at 20 min, 0.1 µM", "≤ 30%"),
]

What does the record list as activity at 20 min, 0.1 µM for CCCCOC(=O)C12CC1[C@@H](n1cnc3c(NC)nc(C#Cc4ccc(Cl)s4)nc31)[C@H](O)[C@@H]2O (single isomer, unassigned) ?
≤ 30%

What does the record list as activity at 20 min, 0.1 µM for CCOC(=O)C12CC1[C@@H](n1ccc3c(NC4CC4)nc(C#Cc4ccccc4)nc31)[C@H](O)[C@@H]2O (single isomer, unassigned) ?
≤ 30%

What does the record list as activity at 20 min, 0.1 µM for CCOC(=O)C12CC1[C@@H](n1ccc3c(NCC4CC4)nc(C#Cc4ccccc4)nc31)[C@H](O)[C@@H]2O (single isomer, unassigned) ?
≤ 30%

What does the record list as activity at 20 min, 0.1 µM for CCOC(=O)C12CC1[C@@H](n1cnc3c(NC)nc(C#Cc4ccc(Cl)s4)cc31)[C@H](O)[C@@H]2O (single isomer, unassigned) ?
≤ 30%

What does the record list as activity at 20 min, 0.1 µM for CNc1nc(C#Cc2ccc(Cl)s2)nc2c1ncn2[C@@H]1C2CC2(C(=O)OC(C)C)[C@@H](O)[C@H]1O (single isomer, unassigned) ?
≤ 30%

What does the record list as activity at 20 min, 0.1 µM for CCOC(=O)[C@]12C[C@@H]1[C@@H](n1cnc3c(NC)nc(C#Cc4ccc(F)s4)nc31)[C@H](O)[C@@H]2O ?
≤ 30%

What does the record list as activity at 20 min, 0.1 µM for CCOC(=O)C12CC1[C@@H](n1ccc3c(NC)nc(I)nc31)[C@H](O)[C@@H]2O (single isomer, unassigned) ?
≤ 30%

What does the record list as activity at 20 min, 0.1 µM for CNc1nc(C#Cc2ccc(Cl)s2)nc2c1ncn2[C@@H]1C2CC2(C(=O)OCCC2CCCCC2)[C@@H](O)[C@H]1O (single isomer, unassigned) ?
≤ 30%
